Data origin, for the record: PubChem BioAssay (NCI)

system: MALME-3M melanoma; assay: NCI-60 one-dose screen, 48 h (100 = growth as untreated, 0 = no growth, -100 = all killed); details: 10 µM unless noted
About 83,000 compounds went through this panel and 20% of them were active in at least one assay; those are over-represented in the sample as a whole.
Hi there, I'd appreciate the recorded growth for every entry that follows.
Write it as a number; the unit % goes unstated.

Problem: // growth lookup, key: "Cc1c2ccccc2nc2cc3c(cc12)[C@H]1CC[C@]2(C)C(=O)CC[C@H]2[C@@H]1CC3"
Result: 108

Problem: Which measured growth value corresponds to "Oc1c(CN2CCC(N3CCOCC3)CC2)cc(Cc2cc(CN3CCC(N4CCOCC4)CC3)c(O)c3ncccc23)c2cccnc12" ?
Result: 56.1

Problem: Dear colleague, I am looking for the recorded growth of the following compound: OC1CSSC1Cn1cnc2c(Nc3ccc(OCc4cccc(F)c4)c(Cl)c3)ncnc21 (centres undefined)
Result: -5.08

Problem: # lookup: growth of Cc1ccc(NC(=O)c2sc3nc(C)c(C(O)c4ccccc4)cc3c2N)cc1 (centres undefined)
Result: 49.1

Problem: Entry under review: COC12C=C/C(=C(/C(=O)OCc3csc(SC)n3)C(=O)CCCCCCCCC3(OC)C=C/C(=C(/C(=O)OCc4cnc(SC)s4)C(=O)CCCCCCCC1)O3)O2 (centres undefined) . Reported growth?
Result: -1.67

Problem: Need growth, item "CC1(C)CC[C@]2(CO)CC[C@]3(C)[C@](O)([C@H](O)C[C@@H]4[C@@]5(C)CCCNC(C)(C)[C@@H]5CC[C@]43C)[C@@H]2C1"
Result: 101

Problem: Entry under review: "C=C1C(=O)O[C@H]2[C@H]1CC/C(COC(=O)C(=O)c1c[nH]c3ccc(Cl)cc13)=C\CC[C@@]1(C)O[C@@H]21" . Reported growth?
Result: -75.7

Problem: Report growth for "COc1ccc2[nH]cc(-c3nonc3-c3c[nH]c4ccc(Br)cc34)c2c1" please.
Result: 70.4

Problem: Look at this compound and give its reported growth. CCCC(O)Cn1ncc(C(=O)OCC)c1NC(=O)NCc1cccc(C(F)(F)F)c1 (centres undefined)
Result: 92

Problem: Given "CN1CCN(Cc2ccc(NC(=O)c3cncc(C#Cc4cnc(N)cc4C#N)c3)cc2C(F)(F)F)CC1" , state its recorded growth.
Result: -4.04

Problem: # growth lookup, item "Oc1ccc(-c2nc3ccc4[nH]ncc4c3c3c2CCCC3)c(F)c1"
Result: 24.9

Problem: Field request: growth | item: "Cc1ccccc1N1CCN(C(=S)c2ccccc2)CC1"
Result: 103

Problem: Please look up its growth: "CN1c2ccccc2S(=O)(=O)n2c(SCC(=O)Nc3nc4ccc(F)cc4s3)nnc21"
Result: 98.8

Problem: Given the entry "COC(=O)c1sccc1-c1cc(O)c(C(=O)Nc2ccccc2)s1" , report its measured growth.
Result: 84.5

Problem: Look up growth for this compound: "C=C1C(=O)O[C@H]2[C@H]1CC/C(CNC(=O)Cc1c[nH]c3ccccc13)=C\CC[C@@]1(C)O[C@@H]21"
Result: 14.2

Problem: // returns reported growth for input "C[C@@H]1CN(c2cnc(C(=O)Nc3cc(F)cc4cccnc34)cn2)C[C@H](C)N1"
Result: 65.2

Problem: What value of measured growth is listed for "Cc1nc2sc(C(=O)Nc3cccc4ccccc34)c(N)c2cc1C(=O)c1ccccc1" ?
Result: 58.5

Problem: Recorded growth of "CC(=O)c1ccc(-n2cc(CN3CCN(c4cc5c(cc4F)c(=O)c(C(=O)O)cn5C4CC4)CC3)nn2)cc1" , please.
Result: 94.9

Problem: Any idea what its growth is? The compound is "Cc1cccc(NC(=O)N/C(N)=N/c2nc3ccccc3s2)c1"
Result: 50.7

Problem: Looking for the measured growth of "Nc1ccc(Br)cc1C(F)(F)F" , can you help?
Result: 114

Problem: Entry "CN(C)/C(N)=N/N=C(\c1ccccc1)c1ccccn1" : reported growth = ?
Result: 93.3

Problem: Which growth value is on record for "O=C(NCCCCCCNC(=O)OCc1ccc2c(Cl)cc(Cl)c(O)c2n1)OCc1ccc2c(Cl)cc(Cl)c(O)c2n1" ?
Result: -84.5

Problem: Would you kindly share the measured growth for COC(=O)c1nc(-c2ccccc2)oc1S(=O)(=O)N1CCCC(C)C1 (centres undefined) ?
Result: 78.2

Problem: Which growth is reported for this compound? "CCOC(=O)c1nnn(Cc2cc(=O)oc3ccc(O)cc23)c1C"
Result: 103

Problem: Bench note: what growth did "Nc1c(Cl)cc(/C=C2\C=Cc3ccccc32)cc1Cl" show?
Result: 119

Problem: Given the compound "CNC(=O)Nc1ccc(-c2ccc3ncnc(Nc4cccc(Cl)c4)c3c2)cc1" , what is its reported growth?
Result: 53.5

Problem: Sample "c1cc(OCCN2CCCC2)ccc1CNc1ccc2nc(CCC3CCCCC3)[nH]c2c1" — what was its growth?
Result: -83.7

Problem: Entry under review: "Clc1ccc2nn3c4ccccc4c(OCCN4CCOCC4)nc3c2c1" . Reported growth?
Result: 134

Problem: I would be grateful if you could share the reported growth for CCOC(=O)C1=C(c2ccccc2)N=C2N(c3ccccc3)N=C(C(C)=O)N2C1c1ccc(F)cc1 (centres undefined) .
Result: 97.7

Problem: Reported growth for "COc1ccc(-c2nc3ccc(C)cc3c3c2c(=O)n(C)c(=O)n3C)cc1OC" : what is it?
Result: 111

Problem: Quick one: growth of "O=C(O)CCCCCCCCCCN1C(=O)/C(=C2/C(=O)N(CC(=O)O)c3ccc(Br)cc32)SC1=S" ?
Result: 96.9

Problem: Can you share its growth? I mean this compound: "Cc1cc(NCCCNc2ccnc3cc(Cl)ccc23)nc(Nc2ccc(C(=O)N3CCCCC3)cc2)n1"
Result: -90.5

Problem: # get_value(readout='growth', item= "CCCCCCCCn1ccc2cc(NC(=O)CN3CCN(c4cc(C)nc(Cl)n4)CC3)ccc21" )
Result: 95.3

Problem: # get_value(readout='growth', item= O=C1CCCC1[n+]1ccccc1 (centres undefined) )
Result: 89.9

Problem: Can you share its growth? I mean this compound: "Fc1cc2[nH]ncc2c2c3c(c(-c4cn[nH]c4C(F)(F)F)nc12)CCCC3"
Result: 10.5

Problem: Would you kindly share the measured growth for "O=C(Nc1ccc(Nc2ccncc2)cc1)c1ccc(Nc2ccnc3ccc([N+](=O)[O-])cc23)cc1" ?
Result: 114

Problem: Recorded growth for "CCCCCc1ccc(S(=O)(=O)Nc2ccc3nc(N)oc3c2)cc1" , please?
Result: 89.8

Problem: Look up growth: "O=c1c2ccccc2n(C[C@H]2CO2)c2ccccc12"
Result: -74.3

Problem: Report growth for "COc1cc(Cc2cc(OC)c(O)c(OC)c2)cc(OC)c1O" please.
Result: 86

====

System: 786-0 renal
Test: NCI-60 one-dose screen, 48 h (100 = growth as untreated, 0 = no growth, -100 = all killed)
Conditions: 10 µM unless noted
Procedure: Cells are grown in 96 well plates and exposed to the test compound for 48 hours. Compounds are tested at a single concentration, which is 10^-5 M for most compounds. The reported endpoint is percent growth (GI% or GIPRCNT), where numbers from 0 - 100% represent growth inhibition, and numbers from -100% - 0 represent cell death. For example, a value of 40 represents 60% growth inhibition. A value of 0 means no net growth occurred over the course of the experiment. […]
The panel holds about 83,000 compounds, 20% with a hit somewhere; the sample as a whole holds those more often.
MEASURED_PARAMETER: growth (%)
Numbers only here, please. The scale is %.

Problem: Entry "COc1cc(OC)c2c(=O)c3c(CC=C(C)C)cc(OC)c(O)c3oc2c1" has what growth?
Result: 90.1

Problem: State the recorded growth for this entry: "O=C1NC(=O)C(c2coc3cc(Br)ccc23)=C1c1c[nH]c2ccccc12"
Result: 69.5

Problem: Entry "COc1ccc2c(c1)CC[C@@H]1[C@@H]2CC[C@]2(C)c3c(cc(C#N)c4c3sc3ccccc34)C[C@@H]12" : reported growth = ?
Result: 111

Problem: Would you mind telling me what growth value was observed for C=CC(CC(c1ccccc1)(c1ccccc1)c1ccccc1)N(CC)CC (stereo not given) ?
Result: 67.8

Problem: Consider the compound shown here: "O=c1cc(CNc2cc(F)cc(F)c2)c2ccc(I)cc2[nH]1" What is its recorded growth?
Result: 43.7

====

tested on: MDA-MB-435 melanoma; test: NCI-60 one-dose screen, 48 h (100 = growth as untreated, 0 = no growth, -100 = all killed); conditions: 10 µM unless noted
Compounds without any hit were thinned out: in the full panel of roughly 83,000, 20% have a hit.
MEASURED_PARAMETER: growth (%)
// units = %; emit number, no label

Problem: Name the reported growth value associated with the compound "CCCCCc1ccc(S(=O)(=O)Nc2ccc3nc(N)oc3c2)cc1"
Result: 50.3

Problem: Returns the measured growth for the input compound. Input: O=C(/C=C/C12c3ccccc3C(c3ccccc31)C1C(=O)NC(=O)C12)c1ccco1 (centres undefined)
Result: 0.633

Problem: Quick one: growth of "COc1ccc(OC)c(Nc2nnc(-c3cc(OC)c(OC)c(OC)c3)o2)c1" ?
Result: 102

Problem: I would be grateful if you could share the reported growth for "O=C(Nc1cccnc1Nc1ccccc1)c1cn(Cc2cccc(Oc3ccccc3)c2)nn1" .
Result: -19.3

Problem: Quick one: growth for "Oc1ccc(-c2nc3ccc4[nH]ncc4c3c3c2CCCC3)c(F)c1" ?
Result: -23.3

Problem: What value of growth has been reported for the following compound? "COc1ccc(C=Nc2c(C(=O)Nc3cccc(Cl)c3C)sc3nc(C)c(C(=O)/C=C/c4ccc(OC)cc4)cc23)cc1"
Result: -65.8

Problem: Which growth value is on record for "COc1ccc(/C=N/NC(=O)Cn2c(-c3ccc(S(C)(=O)=O)cc3)nc3ccccc32)cc1" ?
Result: 97.8

Problem: For the compound shown here, "Cc1cc(N2CCN(CC(=O)Nc3ccc4c(ccn4Cc4ccccc4)c3)CC2)nc(N2CCOCC2)n1" , give the reported growth.
Result: 92.9

Problem: Request the reported growth associated with Nc1ncnc2c1N=C(c1ccc(Cl)cc1)CC(c1cccc(Nc3ccnc4cc(Cl)ccc34)c1)N2 (centres undefined)
Result: 58
